# measured.on: PXR (NR1I2) (Homo sapiens)
# Sequence (O75469 whole entry): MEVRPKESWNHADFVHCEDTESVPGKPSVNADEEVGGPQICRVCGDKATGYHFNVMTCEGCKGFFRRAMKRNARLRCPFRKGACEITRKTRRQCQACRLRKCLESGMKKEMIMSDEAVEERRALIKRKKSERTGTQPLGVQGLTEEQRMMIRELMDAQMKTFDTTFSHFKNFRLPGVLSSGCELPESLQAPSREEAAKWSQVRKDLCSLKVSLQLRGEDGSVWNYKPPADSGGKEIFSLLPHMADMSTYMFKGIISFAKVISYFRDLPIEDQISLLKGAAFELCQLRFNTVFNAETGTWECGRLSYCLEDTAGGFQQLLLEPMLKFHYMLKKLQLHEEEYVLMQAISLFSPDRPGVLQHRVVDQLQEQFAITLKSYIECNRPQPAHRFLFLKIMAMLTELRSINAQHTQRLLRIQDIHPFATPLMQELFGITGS
# test.summary: Inverse agonist activity at human PXR in human HepG2 cells co-expressing luciferase gene under control of CYP3A4 promoter assessed as inhibition in receptor basal activity at 10 uM incubated for 24 hrs by luminescence based analysis relative to control
# Format: cell-based
Listed next: entries and their corresponding inhibition at 24 h, 10 µM.
// units = %; emit number, no label

* CCCCOc1ccc(C(C)(C)C)cc1NC(=O)c1nnn(-c2cc(OC)ccc2OC)c1C | 89

Item COc1ccc(OC)c(-n2nnc(C(=O)Nc3cccc(N4CCCCC4)c3)c2C)c1 has what recorded inhibition at 24 h, 10 µM?
36

Reported inhibition at 24 h, 10 µM for CCCC(C)Oc1ccc(C(C)(C)C)cc1NC(=O)c1nnn(-c2cc(OC)ccc2OC)c1C (racemic) : what is it?
117

So what's the measured inhibition at 24 h, 10 µM for this one? COc1ccc(OC)c(-n2nnc(C(=O)Nc3cc(B4OC(C)(C)C(C)(C)O4)cc(C(C)(C)C)c3)c2C)c1
138

Sample CCC[C@@H](C)Oc1ccc(C(C)(C)C)cc1NC(=O)c1nnn(-c2cc(OC)ccc2OC)c1C — what was its inhibition at 24 h, 10 µM?
91

# get_value(readout='inhibition at 24 h, 10 µM', item= COc1ccc(OC)c(-n2nnc(C(=O)Nc3cc(C(C)(C)C)ccc3OCCN3CCOCC3)c2C)c1 )
81

What does the data say about its inhibition at 24 h, 10 µM? Entry: CCCCOc1ccc(NC(=O)c2nnn(-c3cc(OC)ccc3OC)c2C)cc1C(C)(C)C
73

# inhibition at 24 h, 10 µM lookup, item CCCOc1ccc(C(C)(C)C)cc1NC(=O)c1nnn(-c2cc(OC)ccc2OC)c1C
114

Sample CCC[C@H](C)Oc1ccc(C(C)(C)C)cc1NC(=O)c1nnn(-c2cc(OC)ccc2OC)c1C — what was its inhibition at 24 h, 10 µM?
125

GET /values?readout=inhibition at 24 h, 10 µM&item= CCOc1ccc(C(C)(C)C)cc1NC(=O)c1nnn(-c2cc(OC)ccc2OC)c1C
118
